# system.under.test: TLR5 protein from pGEX-6p-1 (GST-His*10-TEV-TLR5, digested with TEV protease), used for SPR (silvery pomfret (Pampus argenteus))
# measurement.description: SPR; BIAcore S200; TLR5 immobilised on an SA sensor chip; flaB proteins injected at 30 uL/min in PBS-P, 25°C; 1:1 Langmuir fit
recorded.endpoint: Kd (µM)
Give the quantity in µM, number only.

// sample flaB mutant F14 (I324, Ile to Asn) (natural protein) MAINVSTNVSAMTAQRYLNNAADGTQKSMERLSSGYKINSARDDAAGLQISNRLTSQSRGLDMAVRNANDGISIAQTAEGAMNETTNILQRMRDLSLQSANGSNSSSERQAIQEEVSALNDELNRIAETTSFGGNKLLNGSFGNKSFQIGADSGEAVMLSMSDMRSDTKAMGGKSYVATNGKAPDWSVTNATDLTLSYTDKQGEAREVTINAKAGDDLEEVATYINGQNGDIKASVGDEGKLQLFAANQKVSSDVTIGGGLGTEIGFAAGKDVTVKDINVTTVGGSQEAVALIDGALKAVDSQRASLGAFQNRFGHAISNLDNNNENVNASRSRIKDTDYARETTQMTKSQILQQASTSVLAQAKQSPSAALSLLG , its Kd was 27.5
